Listing of entries alongside the reported IC50.
# SYSTEM: human AhR (Homo sapiens)
# Construct: INDIGO's Aryl Hydrocarbon Receptor (AhR) Reporter Cells include the luciferase reporter gene functionally linked to an AhR-responsive promoter
# Sequence (P35869 11-848): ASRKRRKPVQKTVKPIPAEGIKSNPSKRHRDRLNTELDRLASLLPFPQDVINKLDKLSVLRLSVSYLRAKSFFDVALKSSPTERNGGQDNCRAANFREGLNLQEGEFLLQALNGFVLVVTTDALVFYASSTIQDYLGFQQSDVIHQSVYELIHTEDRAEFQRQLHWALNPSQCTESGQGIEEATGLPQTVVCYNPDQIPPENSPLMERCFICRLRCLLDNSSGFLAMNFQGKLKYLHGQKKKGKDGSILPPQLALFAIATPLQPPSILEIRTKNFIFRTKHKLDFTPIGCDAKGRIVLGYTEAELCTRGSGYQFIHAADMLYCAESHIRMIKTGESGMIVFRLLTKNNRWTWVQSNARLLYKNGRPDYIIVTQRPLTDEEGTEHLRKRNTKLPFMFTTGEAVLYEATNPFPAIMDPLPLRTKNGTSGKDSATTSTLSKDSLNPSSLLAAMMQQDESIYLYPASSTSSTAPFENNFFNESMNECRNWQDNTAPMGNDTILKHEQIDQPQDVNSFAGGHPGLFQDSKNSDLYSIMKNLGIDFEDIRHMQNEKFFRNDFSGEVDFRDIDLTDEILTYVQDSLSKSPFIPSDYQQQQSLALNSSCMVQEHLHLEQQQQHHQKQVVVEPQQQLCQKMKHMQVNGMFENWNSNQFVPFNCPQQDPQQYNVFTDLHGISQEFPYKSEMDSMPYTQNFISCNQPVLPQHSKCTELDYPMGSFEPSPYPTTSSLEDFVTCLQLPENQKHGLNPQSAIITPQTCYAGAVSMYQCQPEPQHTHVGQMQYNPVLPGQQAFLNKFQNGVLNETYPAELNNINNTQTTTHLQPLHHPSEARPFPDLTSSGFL
# ASSAY_EXPLANATION: INDIGO AhR Reporter Assay (luciferase reporter cells, antagonist mode)
# MEASUREMENT_CONDITIONS: antagonist mode with 50 nM of VAF347 (AhR agonist); 22-24 hours incubation; luciferase RLU

- Cn1nc(-c2cccc(C(F)(F)F)c2)cc1NC(=O)c1cc2ncccc2cc1Cl: 100 to 500 nM
- Cn1nc(C(F)(F)F)cc1NC(=O)c1ccc2cc(-c3ccncc3F)cnc2c1: 100 to 500 nM
- CCN1CCN(c2ccc(NC(=O)c3ccc4cc(-c5ccccc5)cnc4c3)cc2F)CC1: > 1000 nM

Field: next compound
(Q) Kindly indicate its recorded IC50. Item: Cn1nc(C(F)(F)F)cc1NC(=O)c1ccc2cc(-c3ccc(F)cc3)cnc2c1
(A) < 100 nM
